- study.target: T1, human TMEM106B (human, UniProt Q9NUM4 2-274)
- T1 construct: Full-length, on transiently transfected HEK293 cells, or natively expressed on HeLa, U251 and A549 cells; also called huTMEM106B; huTMEM
- protocol.description: FACS HEK+huTMEM, 0.01 ug/ml
We label by threshold. Values of MFI strictly beneath 800 are Fulfilled. Values of 800 and up are Not fulfilled.

Would you please look over these solved cases?
binder	category
anti-TMEM106B antibody TM-35 (antibody, V domains shown) VH: QVQLQQSGPELVRPGTSVKISCKAPGYTFTRHWMQWVRQRPGQGLEWIGEILPGSNNIYYNEKVKGKATLTVDTSSSTSYMQLSSLTSEDSAVYFCARSLYDYDGVFAYWGQGTLVTVSA VL: DVLMTQIPLSLPVSLGDQASISCRSSQSIVHRNGNTYLEWYLQKPGQSPKLLIYKVSNRFSGVPDRFSGSGSGTDFTLKISRVEAEDLGVYYCFQGSHVPYTFGGGTKLEIK	Not fulfilled
anti-TMEM106B antibody TM-1 (antibody, V domains shown) VH: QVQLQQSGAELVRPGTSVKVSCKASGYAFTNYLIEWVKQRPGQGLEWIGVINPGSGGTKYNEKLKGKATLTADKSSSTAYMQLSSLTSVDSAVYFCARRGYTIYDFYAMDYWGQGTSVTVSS VL: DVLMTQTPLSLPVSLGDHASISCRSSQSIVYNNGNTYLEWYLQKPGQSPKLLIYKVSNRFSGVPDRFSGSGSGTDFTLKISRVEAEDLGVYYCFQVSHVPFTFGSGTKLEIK	Fulfilled
anti-TMEM106B antibody TM-39 (antibody, V domains shown) VH: HVQRQQSGTELAKPGASVKLSCKTSGYTFTDYWMHWIKQRPGQGLEWIGFINPSSGYTKYNQNFKDKATLTADKSSSTAYMQLSSLTYEDSAVFYCAREAGSISDWYFDVWGTGTTVTVSS VL: DIVMTQAAPSIPVTPGESVSISCRSSKTLLNSNGNTYLYWFLQRPGQPPQLLIYRMSNLASGVPDRFSGSGSGTAFTLRISRVEAEDVGVYYCMQHLDYPYTFGGGTQLEIK	Not fulfilled
anti-TMEM106B antibody TM-5 (antibody, V domains shown) VH: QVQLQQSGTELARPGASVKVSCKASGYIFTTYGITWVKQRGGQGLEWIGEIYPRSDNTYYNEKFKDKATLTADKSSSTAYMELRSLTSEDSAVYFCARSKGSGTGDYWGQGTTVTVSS VL: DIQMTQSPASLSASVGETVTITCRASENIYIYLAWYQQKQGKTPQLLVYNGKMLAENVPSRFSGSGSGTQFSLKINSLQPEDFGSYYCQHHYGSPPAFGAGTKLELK	Not fulfilled

Please examine the following record next.
In: Dear reviewer, please state whether anti-TMEM106B antibody TM-49 (antibody, V domains shown, mouse IgG from hybridoma) VH: QVQLQQPGAELVRPGSSVKLSCKASGYTFTRFWMHWVKQRPIQGLEWIGNIDPSDSQTHYNQKFKDKATLTVDKSSSTAYMQLSSLTSEDSAVYYCARLITVDYAMDYWGQGTSVTVSS VL: QIVLTQSPAIMSASPGEKVTISCSASSSVSYMYWYQQKPGSSPKPWIHRTSNLASGVPVRFSGSGSGTSYSLTISSMEAEDAATYYCQQYHSYPPTFGAGTKLELK has MFI strictly beneath 800.
Out: Fulfilled
